# Tested on: polyclonal antibody A11
# protocol_text: Immuno-dot blot with oligomer-specific antibody A11
# Assay type: binding
measured_endpoint: recognition by A11 antibody

INSERT INTO measurements (substance, result) VALUES
  ('KLKVLGDVIEV [Peptide K11VV2L]', 'recognized by A11'),
  ('GKLKVLGDVIEVGGKLKVLGDVIEV [Peptide K11V-TR, tandem repeat of K11VV2L, double glycine linker, additional N-terminal glycine]', 'recognized by A11');
